The entries below come with measured apparent KD of MS2 coat protein values attached.
Tested on: MS2 coat protein
Experiment: apparent KD of MS2 coat protein; designed switch direction (-1 OFF switch, 1 ON switch): -1; higher = weaker reporter binding
Details: Eterna round: R95; input ligand: none
MEASURED_QUANTITY: apparent KD of MS2 coat protein (nM)

SEQUENCE_ENTRY: GGUUGUUUUUUCCGUUCUUACAUGAGGAUCACCCAUGUUUCUUGUCGUGCUCGCGUUGCUCGUCUGUCUGUCUGUUG [salish99_TOv1_r3_073] (puzzle: Sensor v3, turn-off variant 1)
ENDPOINT_VALUE: 56

SEQUENCE_ENTRY: GAAGAGACAGGAUAUACAUGAGGAUCACCCAUGUGAGGAGGAAGAGAGAGGAGAAGGAGUAGAAGGGUCAGAGG [JR_Exclu3_Sub028] (puzzle: Exclusion 3)
ENDPOINT_VALUE: 46.5

SEQUENCE_ENTRY: GAAGAAGAGAGAAAAGAAAACAUGAGGAUCACCCAUGUGAGAAGAUGAGGGUGUAGCAGGCUUUAUGCUCGUCUUAU (puzzle: Sensor v3, turn-off variant 1)
ENDPOINT_VALUE: 27.9

SEQUENCE_ENTRY: UUAGGCGUCAUUGCUCGUCUUUUAUGGAGAUGACUGUUAACAUGAGGAUCACCCAUGUGUGUGGGAGCUUUGCAGUU [JR_SV3TOV2_Sub023] (puzzle: Sensor v3, turn-off variant 2)
ENDPOINT_VALUE: 270

SEQUENCE_ENTRY: UUACCAUGCCGCCUAAUAGCUUUUUGCUCGUCUUAUAUUACAUGAGGAUCACCCAUGUAGAUCAUGUGGCGUGACCU [JL ViennaUCT Maridi mod 2] (puzzle: Sensor v3, turn-off variant 2)
ENDPOINT_VALUE: 121

SEQUENCE_ENTRY: AGAAGUAGUAUCCGAUCCUACAUGAGGAUCACCCAUGUAGCUAGACGUGCACGCGAUGCUCGUCAGACUACCAGAUG [salish99_TOv1_r3_030] (puzzle: Sensor v3, turn-off variant 1)
ENDPOINT_VALUE: 405

SEQUENCE_ENTRY: UAGGUACAUGAGGAUCACCCAUGUGAGGAUAUAGAGGAAGAUUGCGAGAGGGAGAGGACUAGAAGGCACAGUGG [JR_Exclu1_Sub035] (puzzle: Exclusion 1)
ENDPOINT_VALUE: 39.9

SEQUENCE_ENTRY: AAGAGUGCAGGAUAUACUUGAUAGGGUAAGGUGAGUGAGGGACAUGAGGAUCACCCAUGUAGAAGGGCAGAGAG [JR_Exclu2_Sub058] (puzzle: Exclusion 2)
ENDPOINT_VALUE: 26.3

SEQUENCE_ENTRY: CAUGAUUUUCGGAAAAUGUACAUGAGGAUCACCCAUGUGACGAGUUACAUGAAAAACAAGCUUUUUGCUCGUCUUAU [Sensor v3 - Turn-off variant 1 - 11] (puzzle: Sensor v3, turn-off variant 1)
ENDPOINT_VALUE: 188

SEQUENCE_ENTRY: AAGAAGCAAGGAUAUACAGAGGAGAGUAAAGCAAGAGGAGAACAUGAGGAUCACCCAUGUAGAAGGUGCAGAGA [JR_Exclu2_Sub018] (puzzle: Exclusion 2)
ENDPOINT_VALUE: 29.1
